Each recorded value in this set is attributed to paper PMC11134387.

tested on: OCI-AML3 (NPM1 C+); assay: Cell viability dose-response in AML cell line (NPM1 C+); format: cell-based; conditions: Homo sapiens, OCI-AML-3; OCI-AML3, 48 h
MEASURED PARAMETER: IC50 (µM)
Number in µM, nothing else.

I'd like to know its IC50. The compound in question is COc1ccc(C2Cc3[nH]c4ccccc4c3C(CCNCC3CC3)C2N)cc1 (stereo not shown)
7.26

---

system: MCF-7; assay: Cytotoxic effect in breast tumor cell line (MTT); conditions: Homo sapiens, MCF7, read-out: Viability (%) MCF-7, @10 µM
Entries and their measured viability at 10 µM follow.
Number in %, nothing else.

COc1ccc([C@@H]2CCN(CC3CC3)C[C@H]2N)cc1 ... 96
COc1ccc([C@H]2CCN(CC3CC3)C[C@@H]2N)cc1 ... 97

I'd like to know its viability at 10 µM. The compound in question is COc1ccc2c(c1)C1C(=O)N(CC3CC3)CC1C(C)(C)O2 (stereo not drawn)
65

---

system: MCF-7; experiment: Cytotoxic effect in breast tumor cell line (MTT); settings: Homo sapiens, MCF7, read-out: Viability (%) MCF-7, @10 µM
MEASURED PARAMETER: viability at 10 µM (%)
Number in %, nothing else.

I'd like to know its viability at 10 µM. The molecule in question is COc1ccc2c(c1)C1CN(CC3CC3)CC1C(C)(C)O2 (centres unmarked)
98

I'd like to know its viability at 10 µM. The molecule in question is COc1ccc2c(c1)[C@H]1C(=O)N(CC3CC3)C[C@@H]1C(C)(C)O2
73

I'd like to know its viability at 10 µM. The molecule in question is COc1ccc([C@@H]2CCNC[C@H]2NCC2CC2)cc1
98

I'd like to know its viability at 10 µM. The molecule in question is COc1ccc([C@H]2Oc3ccccc3[C@@H](CN)[C@@H]2C(=O)NCC2CC2)cc1 [10a]
89

I'd like to know its viability at 10 µM. The molecule in question is COc1ccc2c(c1)[C@@H](CN)[C@H](CNCC1CC1)C(C)(C)O2 [12a]
90

---

experiment: Viability of non-tumor fibroblast cell line; type: cell-based; conditions: human, IMR90 non-tumor fibroblasts; @1 µM (footnote b)
MEASURED PARAMETER: viability at 48 h, 1 µM (%)
Number in %, nothing else.

Some compounds with recorded viability at 48 h, 1 µM:
COc1ccc([C@H]2Oc3ccccc3[C@H]3[C@@H](N)[C@H](c4ccc(OC)cc4)C(CNCC4CC4)=C[C@@H]32)cc1 ... 83
COc1ccc([C@H]2C(CNCC3CC3)=C[C@@H]3[C@H](c4ccccc4O[C@H]3c3ccc(OC)cc3)[C@@H]2N)cc1 ... 98

I'd like to know its viability at 48 h, 1 µM. The compound in question is COc1ccc([C@@H]2C(CNCC3CC3)=C[C@H]3[C@@H](c4ccccc4OC3(C)C)[C@H]2N)cc1
95

---

test system: primary CD34+ cells from healthy donors; assay: CFU-E colony-forming unit assay, healthy donors; format: cell-based; conditions: Homo sapiens
MEASURED PARAMETER: IC50 (nM)
Number in nM, nothing else.

I'd like to know its IC50. The compound in question is COc1ccc(C2Cc3[nH]c4ccccc4c3C(CCNCC3CC3)C2N)cc1 (stereo not shown)
1730

---

target: NPM1 C-end WT (Homo sapiens, UniProt P06748)
Sequence (P06748 225-294): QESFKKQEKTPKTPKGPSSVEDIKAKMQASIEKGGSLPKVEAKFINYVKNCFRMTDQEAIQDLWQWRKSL
MEASURED PARAMETER: pKd
// pKd is dimensionless: -log10 of concentration (M)

I'd like to know its pKd. The compound in question is COc1ccc(C2Cc3[nH]c4ccccc4c3C(CCNCC3CC3)C2N)cc1 (stereo not shown)
4.43

---

assay: Viability of non-tumor fibroblast cell line; assay type: cell-based; conditions: human, IMR90 non-tumor fibroblasts; @5 µM
Entries and their measured viability at 48 h, 5 µM follow.
Number in %, nothing else.

Some compounds with recorded viability at 48 h, 5 µM:
COc1ccc([C@H]2C(CNCC3CC3)=C[C@@H]3[C@H](c4ccccc4O[C@H]3c3ccc(OC)cc3)[C@@H]2N)cc1 ... 28
COc1ccc(C2Cc3[nH]c4ccccc4c3C(CCNCC3CC3)C2N)cc1 (centres unmarked) ... 100
COc1ccc([C@H]2Oc3ccccc3[C@H]3[C@@H](N)[C@H](c4ccc(OC)cc4)C(CNCC4CC4)=C[C@@H]32)cc1 ... 20
COc1ccc([C@H]2C(CNCC3CC3)=C[C@@H]3[C@H](c4ccccc4OC3(C)C)[C@@H]2N)cc1 ... 57

# evaluate next
I'd like to know its viability at 48 h, 5 µM. The compound in question is COc1ccc([C@@H]2C(CNCC3CC3)=C[C@H]3[C@@H](c4ccccc4OC3(C)C)[C@H]2N)cc1
53

---

Target: NPM1 C-end C+ (Homo sapiens)
Construct: the C-end domain (residues 225- 294); 6xHis (N)
Sequence (P06748 with tags, fused parts or gaps limits assumed): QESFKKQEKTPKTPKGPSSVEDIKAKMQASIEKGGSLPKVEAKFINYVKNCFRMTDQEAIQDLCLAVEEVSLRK
Test: Isothermal titration calorimetry, NPM1 C-end C+
Details: ITC, 25 °C, NPM1 C-end C+
Description: To confirm a direct interaction of UCM-13369 with NPM1 and to address which domain of the protein would be responsible for binding the compound, pure protein samples of the pentameric N-end domain of NPM1, along with the C-terminal DNA-binding domains of WT and mutant NPM1 C+, were used in calorimetry assays. […] This is indicative of a lower diversity in the chemical environment of amide protons consistent with the previously reported protein unfolding.[29] […]
MEASURED PARAMETER: pKd
// pKd is dimensionless: -log10 of concentration (M)

Return pKd measured with NPM1 C-end C+ (Homo sapiens) given this compound: COc1ccc(C2Cc3[nH]c4ccccc4c3C(CCNCC3CC3)C2N)cc1 (stereo not shown) [4b]
4.82

---

Entries and their measured viability at 10 µM follow.
system: MCF-7; assay: Cytotoxic effect in breast tumor cell line (MTT); settings: Homo sapiens, MCF7, read-out: Viability (%) MCF-7, @10 µM
Include the unit after the number when you answer.

COc1ccc([C@@H]2Oc3ccccc3[C@H](CN)[C@H]2C(=O)NCC2CC2)cc1 [10b] ... 94%

I'd like to know its viability at 10 µM. The compound in question is COc1ccc2c(c1)[C@@H](CN)[C@H](C(=O)NCC1CC1)C(C)(C)O2 [11a]
92%

I'd like to know its viability at 10 µM. The compound in question is COc1ccc2c(c1)C1C(=NO)N(CC3CC3)CC1C(C)(C)O2 (stereo not shown)
96%

I'd like to know its viability at 10 µM. The compound in question is COc1ccc([C@H]2CCNC[C@@H]2NCC2CC2)cc1
95%

I'd like to know its viability at 10 µM. The compound in question is COc1ccc([C@@H]2CC(=O)N(CC3CC3)C[C@H]2N)cc1
91%

I'd like to know its viability at 10 µM. The compound in question is COc1ccc2c(c1)[C@H](CN)[C@@H](C(=O)NCC1CC1)C(C)(C)O2 [11b]
99%

I'd like to know its viability at 10 µM. The compound in question is COc1ccc2c(c1)[C@H](CN)[C@@H](CNCC1CC1)C(C)(C)O2 [12b]
73%

I'd like to know its viability at 10 µM. The compound in question is COc1ccc2c(c1)[C@H]1CN(CC3CC3)C[C@@H]1C(C)(C)O2
65%

I'd like to know its viability at 10 µM. The compound in question is COc1ccc2c(c1)[C@H]1C(=NO)N(CC3CC3)C[C@@H]1C(C)(C)O2
98%

I'd like to know its viability at 10 µM. The compound in question is COc1ccc(C2CC(=O)N(CC3CC3)CC2N)cc1 (stereo not shown)
80%

---

tested on: primary HSCs from WT NPM1 AML patients; assay: CD34+ liquid HSC short-term culture, WT NPM1 AML patients; assay type: cell-based; conditions: Homo sapiens, n = 3
MEASURED PARAMETER: pIC50
// pIC50 is dimensionless: -log10 of concentration (M)

I'd like to know its pIC50. The compound in question is COc1ccc(C2Cc3[nH]c4ccccc4c3C(CCNCC3CC3)C2N)cc1 (stereo not shown)
5.42
